All values here come from patent US20260116991A1.

target-system: T1, monkey GPC3-His protein (monkey)
T1 construct: Bought recombinant protein; also called monkey GPC3 protein
assay-procedure: ELISA, monkey GPC3-His coated;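 further: Plate-coated antigen at 1 µg/mL, antibody binding 2 h at 37 °C, detected with HRP-labeled secondary antibody and TMB, absorbance at 450 nm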
Exercise: for every item that follows, state its recorded OD450 at 0.01 nM.
One number for each entry, in OD450.

Look over these answered cases.
F3.81.19 (antibody, human IgG1, kappa, V domains shown, Human-murine chimeric antibody) VH: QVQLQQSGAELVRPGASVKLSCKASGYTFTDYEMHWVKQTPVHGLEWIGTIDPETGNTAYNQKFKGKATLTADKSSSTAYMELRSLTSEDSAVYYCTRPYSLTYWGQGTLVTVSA VL: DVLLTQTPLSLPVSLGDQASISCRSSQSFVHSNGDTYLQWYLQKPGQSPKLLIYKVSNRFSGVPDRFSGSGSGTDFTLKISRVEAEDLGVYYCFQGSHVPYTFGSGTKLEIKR = 0.16
F4.26.1 (antibody, human IgG1, kappa, V domains shown, Human-murine chimeric antibody) VH: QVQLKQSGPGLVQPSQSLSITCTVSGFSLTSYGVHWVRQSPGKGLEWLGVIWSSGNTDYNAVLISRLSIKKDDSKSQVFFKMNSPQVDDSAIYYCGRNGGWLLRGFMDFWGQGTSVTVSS VL: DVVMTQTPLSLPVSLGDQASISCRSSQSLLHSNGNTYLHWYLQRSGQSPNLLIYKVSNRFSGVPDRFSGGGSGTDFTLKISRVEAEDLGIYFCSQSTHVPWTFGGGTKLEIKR = 0.18

Consider now this further binder.
Return reported OD450 at 0.01 nM; argument: F3.54.12 (antibody, human IgG1, kappa, V domains shown, Human-murine chimeric antibody) VH: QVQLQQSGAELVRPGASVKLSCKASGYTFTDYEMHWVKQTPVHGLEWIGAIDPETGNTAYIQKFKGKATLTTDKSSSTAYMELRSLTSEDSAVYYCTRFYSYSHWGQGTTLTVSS VL: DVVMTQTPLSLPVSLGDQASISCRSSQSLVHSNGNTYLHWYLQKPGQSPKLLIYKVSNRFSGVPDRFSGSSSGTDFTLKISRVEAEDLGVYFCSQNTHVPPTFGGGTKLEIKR
0.41
